system: SW 1271 complex spheroids, viability; assay: Anticancer human tumor SW 1271 cell line growth inhibition [LSD1]; details: second compound 1 µM; first compound 0.0316 µM; hits give low values;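 also: spheroids exposed to agents for 7 days before luminescence read; 100% = DMSO vehicle control viability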
Form field: viability, T/C (one value per entry).
parameter: viability, T/C (%)

1. CC[C@@]1(O)C(=O)OCc2c1cc1n(c2=O)Cc2cc3c(CN(C)C)c(O)ccc3nc2-1 + NC1CCC(NC2CC2c2ccccc2)CC1: 59
2. Nc1ncn(C2CC(O)C(CO)O2)c(=O)n1 (stereo not drawn) + NC1CC1c1ccc(-c2cccc(O)c2)cc1: 81.8
3. Cn1ncnc1C1c2n[nH]c(=O)c3cc(F)cc(c23)NC1c1ccc(F)cc1 (stereo not drawn) + NC1CCC(NC2CC2c2ccccc2)CC1: 85
4. COc1cc(Nc2ncc3c(n2)-c2ccc(Cl)cc2C(c2c(F)cccc2OC)=NC3)ccc1C(=O)O + NC1CCC(NC2CC2c2ccccc2)CC1: 85.4
5. O=C(C=Cn1cnc(-c2cc(C(F)(F)F)cc(C(F)(F)F)c2)n1)NNc1cnccn1 + NC1CCC(NC2CC2c2ccccc2)CC1: 88.9
6. CC1(C)CCC(CN2CCN(c3ccc(C(=O)NS(=O)(=O)c4ccc(NCC5CCOCC5)c([N+](=O)[O-])c4)c(Oc4cnc5[nH]ccc5c4)c3)CC2)=C(c2ccc(Cl)cc2)C1 + NC1CCC(NC2CC2c2ccccc2)CC1: 89.5
7. CC(C)CC(NC(=O)C(Cc1ccccc1)NC(=O)c1cnccn1)B(O)O (stereo not drawn) + NC1CCC(NC2CC2c2ccccc2)CC1: 0.14
8. CC(C)CC(NC(=O)C(Cc1ccccc1)NC(=O)c1cnccn1)B(O)O (stereo not drawn) + NC1CC1c1ccc(-c2cccc(O)c2)cc1: 0.05
9. CC(C)CC(NC(=O)CNC(=O)c1cc(Cl)ccc1Cl)B1OC(=O)CC(CC(=O)O)(C(=O)O)O1 (stereo not drawn) + NC1CCC(NC2CC2c2ccccc2)CC1: 0.34
10. COc1ccc([C@@H](O)c2cc(-c3ncnc4cc(N5CCOCC5)ccc34)c(F)cc2Cl)nn1 + NC1CC1c1ccc(-c2cccc(O)c2)cc1: 72.9
11. CC[C@@]1(O)C(=O)OCc2c1cc1n(c2=O)Cc2cc3c(CN(C)C)c(O)ccc3nc2-1 + NC1CC1c1ccc(-c2cccc(O)c2)cc1: 52.4
12. O=C(c1cc(Cc2n[nH]c(=O)c3ccccc23)ccc1F)N1CCN(C(=O)C2CC2)CC1 + NC1CC1c1ccc(-c2cccc(O)c2)cc1: 81.4
13. Cn1ncnc1C1c2n[nH]c(=O)c3cc(F)cc(c23)NC1c1ccc(F)cc1 (stereo not drawn) + NC1CC1c1ccc(-c2cccc(O)c2)cc1: 66.1

---

tested on: SW 1271 complex spheroids, viability; experiment: Anticancer human tumor SW 1271 cell line growth inhibition [LSD1]; settings: second compound 10 µM; first compound 3.16 µM; hits give low values;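 also: spheroids exposed to agents for 7 days before luminescence read; 100% = DMSO vehicle control viability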
viability, T/C for assorted molecules
parameter: viability, T/C (%)

1) COc1ccc([C@@H](O)c2cc(-c3ncnc4cc(N5CCOCC5)ccc34)c(F)cc2Cl)nn1 + NC1CCC(NC2CC2c2ccccc2)CC1: 26.6
2) CC(C)c1c(-c2ccccc2)nc2c(C#N)c[nH]n2c1=O + NC1CC1c1ccc(-c2cccc(O)c2)cc1: 50.8
3) CC1COCCN1c1cc(C2(S(C)(=N)=O)CC2)nc(-c2ccnc3[nH]ccc23)n1 (stereo unspecified) + NC1CCC(NC2CC2c2ccccc2)CC1: 50.9
4) CC1COCCN1c1cc(C2(S(C)(=N)=O)CC2)nc(-c2ccnc3[nH]ccc23)n1 (stereo unspecified) + NC1CC1c1ccc(-c2cccc(O)c2)cc1: 42
5) O=C(c1cc(Cc2n[nH]c(=O)c3ccccc23)ccc1F)N1CCN(C(=O)C2CC2)CC1 + NC1CC1c1ccc(-c2cccc(O)c2)cc1: 52.7
6) CC1(C)CCC(CN2CCN(c3ccc(C(=O)NS(=O)(=O)c4ccc(NCC5CCOCC5)c([N+](=O)[O-])c4)c(Oc4cnc5[nH]ccc5c4)c3)CC2)=C(c2ccc(Cl)cc2)C1 + NC1CC1c1ccc(-c2cccc(O)c2)cc1: 40
